PROCEDURE_DETAILS: Kinetic solubility study (saturated solutions, HPLC)
Format: physicochemical
DETAILS: water, equilibrated 4 h, 20 mg in 1.5 mL
Each entry below carries its recorded Solubility in H2O.
Dear colleague, please return just the value in µg/mL, with no unit written.

The following compounds have reported results that may help.
{"columns": ["COMPOUND", "VALUE"],
 "data": [
  ["COc1cc2nccc(Oc3ccc(NC(=O)C4(C(=O)Nc5ccc(F)cc5)CC4)cc3)c2cc1OC.O=C(O)C[C@H](O)C(=O)O [Form CSI]", 360],
  ["COc1cc2nccc(Oc3ccc(NC(=O)C4(C(=O)Nc5ccc(F)cc5)CC4)cc3)c2cc1OC.O=C(O)C[C@H](O)C(=O)O [Form M4]", 2.8],
  ["COc1cc2nccc(Oc3ccc(NC(=O)C4(C(=O)Nc5ccc(F)cc5)CC4)cc3)c2cc1OC.O=C(O)C[C@H](O)C(=O)O [Form CSIII]", 240]
]}

Next, consider the following compound.
Name the reported Solubility in H2O value associated with the compound COc1cc2nccc(Oc3ccc(NC(=O)C4(C(=O)Nc5ccc(F)cc5)CC4)cc3)c2cc1OC.O=C(O)C[C@H](O)C(=O)O [Form N-2]
150

====

Each entry below carries its recorded Solubility in H2O.
PROCEDURE_DETAILS: Kinetic solubility study (saturated solutions, HPLC)
Assay type: physicochemical
DETAILS: water, equilibrated 1 h, 20 mg in 1.5 mL
Dear colleague, please return just the value in µg/mL, with no unit written.

The following compounds have reported results that may help.
{"columns": ["COMPOUND", "VALUE_UNITS", "Solubility in H2O"],
 "data": [
  ["COc1cc2nccc(Oc3ccc(NC(=O)C4(C(=O)Nc5ccc(F)cc5)CC4)cc3)c2cc1OC.O=C(O)C[C@H](O)C(=O)O [Form M4]", "µg/mL", 72],
  ["COc1cc2nccc(Oc3ccc(NC(=O)C4(C(=O)Nc5ccc(F)cc5)CC4)cc3)c2cc1OC.O=C(O)C[C@H](O)C(=O)O [Form CSI]", "µg/mL", 350],
  ["COc1cc2nccc(Oc3ccc(NC(=O)C4(C(=O)Nc5ccc(F)cc5)CC4)cc3)c2cc1OC.O=C(O)C[C@H](O)C(=O)O [Form N-2]", "µg/mL", 150]
]}

Name the reported Solubility in H2O value associated with the compound COc1cc2nccc(Oc3ccc(NC(=O)C4(C(=O)Nc5ccc(F)cc5)CC4)cc3)c2cc1OC.O=C(O)C[C@H](O)C(=O)O [Form CSIII]
300
